# Tested Target: p38 MAPKα isoform (MAPK14) (Homo sapiens)
# Sequence (Q16539 whole entry, canonical isoform): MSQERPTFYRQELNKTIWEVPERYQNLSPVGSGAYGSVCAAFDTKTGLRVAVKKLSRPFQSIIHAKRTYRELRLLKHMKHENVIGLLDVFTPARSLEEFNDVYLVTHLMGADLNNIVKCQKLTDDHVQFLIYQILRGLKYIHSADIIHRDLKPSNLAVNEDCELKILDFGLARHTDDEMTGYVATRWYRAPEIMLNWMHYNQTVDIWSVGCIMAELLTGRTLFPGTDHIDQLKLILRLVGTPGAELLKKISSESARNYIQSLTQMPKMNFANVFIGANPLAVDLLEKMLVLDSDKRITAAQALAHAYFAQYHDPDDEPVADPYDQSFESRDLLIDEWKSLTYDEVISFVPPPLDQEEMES
# Protocol Description: Enzyme inhibition assay (FRET, Z-LYTE), p38 MAPKα via MAPKAP-K2 activation
# Condition Notes: read-out: Enzyme Inhibition IC50 p38α
Measurement Type: IC50 (µM)

Molecule | Units Symbol | Reading
COCC(=O)Nc1cc(COc2ccc(NC(=O)Nc3cc(C(C)(C)C)nn3-c3ccc(C)cc3)c3cccnc23)ccn1 [Example 16] | µM | 0.0367
CNC(=O)Nc1cc(Oc2ccc(NC(=O)Nc3cc(C(C)(C)C)nn3-c3ccc(C(=O)O)cc3)c(Cl)c2Cl)ccn1 [Example 60] | µM | 0.0103
COCC(=O)Nc1cc(Oc2ccc(NC(=O)Nc3cc(C(C)(C)C)nn3-c3ccc(C)cc3)c3cccnc23)ccn1 [Example 6] | µM | 0.0067
COCC(=O)Nc1cc(Oc2ccc(NC(=O)Nc3cc(C(C)(C)C)nn3-c3ccc(C)cc3)cc2Cl)ccn1 [Example 29] | µM | 0.0461

====

# System: IL-8 release in d-U937 cells
# Protocol Description: LPS-induced IL-8 release in d-U937 cells
# Type: cell-based, human
# Condition Notes: Homo sapiens, dU937
// IC50 lookup, one value per entry
Measurement Type: IC50 (nM)

Compound | Units Symbol | Reading
COc1ccc(-n2nc(C(C)(C)C)cc2NC(=O)Nc2ccc(Oc3ccnc(NC(=O)CN4CCOCC4)c3)c(Cl)c2Cl)cc1 [Example 45] | nM | 1
CC(C)(C)c1cc(NC(=O)Nc2ccc(Oc3ccnc(NC(=O)NCCN4CCOCC4)c3)c(Cl)c2Cl)n(-c2ccc(CO)cc2)n1 [Example 71] | nM | 1.4
CNC(=O)Nc1cc(Oc2ccc(NC(=O)Nc3cc(C(C)(C)C)nn3-c3ccc(C)cc3)c(Cl)c2Cl)ccn1 [Example 50] | nM | 0.6
COCC(=O)Nc1cc(Oc2cc(Cl)c(NC(=O)Nc3cc(C(C)(C)C)nn3-c3ccc(C)cc3)cc2Cl)ccn1 [Example 39] | nM | 108

====

# System: Differentiated U937 cells
# Protocol Description: Cell viability MTT assay
# Assay type: cell-based, human
# Condition Notes: 24 h in 10% FCS; negative = apparent increase in viability
Measurement Type: MTT Assay (Viability) 24 h d-U937, percentage loss of cell viability (%)

Chemical Smiles | Tested Target | Reading
COc1ccc(-n2nc(C(C)(C)C)cc2NC(=O)Nc2ccc(Oc3ccnc(NC(=O)NCCN4CCOCC4)c3)c(Cl)c2Cl)cc1 | Differentiated U937 cells | 73.3
COCC(=O)Nc1cc(COc2ccc(NC(=O)Nc3cc(C(C)(C)C)nn3-c3ccc(OC)cc3)c3cccnc23)ccn1 | Differentiated U937 cells | 4.0
COCC(=O)Nc1cc(Oc2ccc(NC(=O)Nc3cc(C(C)(C)C)nn3-c3ccc(C)cc3)c(Cl)c2Cl)ncn1 | Differentiated U937 cells | −7.5
COCC(=O)Nc1cc(COc2ccc(NC(=O)Nc3cc(C(C)(C)C)nn3-c3ccc(C)cc3)c3cccnc23)ccn1 | Differentiated U937 cells | −21.3
CNC(=O)Nc1cc(Oc2ccc(NC(=O)Nc3cc(C(C)(C)C)nn3-c3ccc(C)cc3)c(Cl)c2Cl)ccn1 | Differentiated U937 cells | 35.9
CN(C)[C@@H]1CCN(C(=O)Nc2cc(Oc3ccc(NC(=O)Nc4cc(C(C)(C)C)nn4-c4ccc(O)cc4)c(Cl)c3Cl)ccn2)C1 | Differentiated U937 cells | 42.0
COc1ccc(-n2nc(C(C)(C)C)cc2NC(=O)Nc2ccc(Oc3ccnc(NC(=O)NCCO)c3)c(Cl)c2Cl)cc1 | Differentiated U937 cells | 90.3
CNC(=O)Nc1nccc(Oc2ccc(NC(=O)Nc3cc(C(C)(C)C)nn3-c3ccc(C)cc3)c(Cl)c2Cl)n1 | Differentiated U937 cells | −13.4
COCC(=O)Nc1cc(Oc2c(NC(=O)Nc3cc(C(C)(C)C)nn3-c3ccc(C)cc3)ccc(F)c2F)ccn1 | Differentiated U937 cells | 10.0
CNC(=O)Nc1cc(Oc2ccc(NC(=O)Nc3cc(C(C)(C)C)nn3-c3ccc(OC)cc3)c3cccnc23)ccn1 | Differentiated U937 cells | −29.0
COc1ccc(-n2nc(C(C)(C)C)cc2NC(=O)Nc2ccc(Oc3ccnc(NC(=O)CN(C)C)c3)c(Cl)c2Cl)cc1 | Differentiated U937 cells | 79.1
COc1ccc(-n2nc(C(C)(C)C)cc2NC(=O)Nc2ccc(Oc3ccnc(NC(=O)NC4CC4)c3)c(C#N)c2Cl)cc1 | Differentiated U937 cells | 20.9
COCC(=O)Nc1cc(Oc2ccc(NC(=O)Nc3cc(C(C)(C)C)nn3-c3ccc(C)cc3)c(S(C)(=O)=O)c2)ccn1 | Differentiated U937 cells | 32.7
CNC(=O)Nc1cc(COc2ccc(NC(=O)Nc3cc(C(C)(C)C)nn3-c3ccc(C)cc3)c3cccnc23)ccn1 | Differentiated U937 cells | −12.0

====

# Tested on: Differentiated U937 cells
# Protocol Description: Cell viability MTT assay
# Assay type: cell-based, human
# Condition Notes: 24 h in 10% FCS; negative = apparent increase in viability
// MTT Assay (Viability) 24 h d-U937, percentage loss of cell viability lookup, one value per entry
Measurement Type: MTT Assay (Viability) 24 h d-U937, percentage loss of cell viability (%)

Chemical Smiles | Tested Target | Reading
CC(C)(C)c1cc(NC(=O)Nc2ccc(Oc3ccnc(NC(=O)N4CCCC4)c3)c(Cl)c2Cl)n(-c2ccc(CO)cc2)n1 | Differentiated U937 cells | 53.3
COCC(=O)Nc1cc(CSc2ccc(NC(=O)Nc3cc(C(C)(C)C)nn3-c3ccc(OC)cc3)c(Cl)c2Cl)ccn1 | Differentiated U937 cells | −4.3
COc1ccc(-n2nc(C(C)(C)C)cc2NC(=O)Nc2ccc(Oc3ccnc(NC(=O)N4CCCC4)c3)c(C#N)c2Cl)cc1 | Differentiated U937 cells | 23.2
CNC(=O)Nc1cc(Oc2ccc(NC(=O)Nc3cc(C4(C)CCCCC4)nn3-c3ccc(C)cc3)c(Cl)c2Cl)ccn1 | Differentiated U937 cells | 12.3
CNC(=O)Nc1cc(Oc2ccc(NC(=O)Nc3cc(C(C)(C)C)nn3-c3ccc(CO)cc3)c(Cl)c2Cl)ccn1 | Differentiated U937 cells | 8.1
COCC(=O)Nc1cc(COc2ccc(NC(=O)Nc3cc(C(C)(C)C)nn3-c3ccc(OC)cc3)c(Cl)c2Cl)ccn1 | Differentiated U937 cells | 12.4
CSc1ccc(-n2nc(C(C)(C)C)cc2NC(=O)Nc2ccc(Oc3ccnc(NC(=O)N4CCCC4)c3)c(Cl)c2Cl)cc1 | Differentiated U937 cells | 17.0

====

# Tested Target: p38 MAPKγ (MAPK12) (Homo sapiens)
# Sequence (P53778 1-367): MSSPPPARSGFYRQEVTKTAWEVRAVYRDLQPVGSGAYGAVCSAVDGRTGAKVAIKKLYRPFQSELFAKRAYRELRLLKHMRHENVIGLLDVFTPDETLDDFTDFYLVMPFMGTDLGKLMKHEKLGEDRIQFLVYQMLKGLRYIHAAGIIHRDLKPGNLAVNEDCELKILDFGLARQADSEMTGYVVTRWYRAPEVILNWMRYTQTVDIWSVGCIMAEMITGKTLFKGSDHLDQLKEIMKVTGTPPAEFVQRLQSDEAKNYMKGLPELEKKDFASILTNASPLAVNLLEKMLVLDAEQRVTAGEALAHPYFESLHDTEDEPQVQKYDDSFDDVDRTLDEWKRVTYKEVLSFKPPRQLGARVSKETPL
pIC50: −log10 of the molar value.
Measurement Type: pIC50

Chemical Smiles | Tested Target | Measurement Type | Reading
CNC(=O)Nc1cc(Oc2ccc(NC(=O)Nc3cc(C(C)(C)C)nn3-c3ccc(CO)cc3)c(Cl)c2Cl)ccn1 | p38 MAPKγ (MAPK12) (Homo sapiens) | pIC50 | 7.49
COc1ccc(-n2nc(C(C)(C)C)cc2NC(=O)Nc2ccc(Oc3ccnc(NC(=O)N4CC[C@H](N(C)C)C4)c3)c(Cl)c2Cl)cc1 | p38 MAPKγ (MAPK12) (Homo sapiens) | pIC50 | 7.47
CNC(=O)Nc1cc(Oc2ccc(NC(=O)Nc3cc(C(C)(C)C)nn3-c3ccc(OC)cc3)c3ncccc23)ccn1 | p38 MAPKγ (MAPK12) (Homo sapiens) | pIC50 | 6.78
Cc1ccc(-n2nc(C(C)(C)C)cc2NC(=O)Nc2ccc(Oc3ccnc(NC(=O)N(C)C)c3)c(Cl)c2Cl)cc1 | p38 MAPKγ (MAPK12) (Homo sapiens) | pIC50 | 6.85
COCC(=O)Nc1cc(Oc2ccc(NC(=O)Nc3cc(C(C)(C)C)nn3-c3ccc(CO)cc3)c(Cl)c2Cl)ccn1 | p38 MAPKγ (MAPK12) (Homo sapiens) | pIC50 | 7.44
COCC(=O)Nc1cc(Oc2cc(Cl)c(NC(=O)Nc3cc(C(C)(C)C)nn3-c3ccc(C)cc3)cc2Cl)ccn1 | p38 MAPKγ (MAPK12) (Homo sapiens) | pIC50 | 5.46
COCC(=O)Nc1cc(Oc2ccc(NC(=O)Nc3cc(C(C)(C)C)nn3-c3ccc(C)cc3)cc2S(C)(=O)=O)ccn1 | p38 MAPKγ (MAPK12) (Homo sapiens) | pIC50 | 6.54
